The reported numbers originate from patent US4921847A.

- System: Sarcoma 180 tumors
- TEST SUMMARY: Therapeutic index (LD50/ED90), implanted Sarcoma 180 tumors
- Type: in vivo, Swiss white mice
- TEST PARAMETERS: LD50/ED90
So basically: Therapeutic Index at 3 or higher? That is label 1. Lower than 3? That is label 0.

Some solved entries appear below for comparison.
{"COMPOUND": "O=C(O)c1ccc[n+]([Au-]([Cl])([Cl])[Cl])c1", "GROUP": "label 1"}
{"COMPOUND": "CC(=O)c1ccc[n+]([Au-]([Cl])([Cl])[Cl])c1", "GROUP": "label 1"}

**Q:** Does Therapeutic Index meet or surpass 3 for OCc1ccc[n+]([Au-]([Cl])([Cl])[Cl])c1 ?
**A:** label 0

**Q:** Reported Therapeutic Index at or above 3? Cn1cc[n+]([Au-]([Br])([Br])[Br])c1
**A:** label 0

**Q:** Is Therapeutic Index at least 3? Consider Cn1cc[n+]([Au-]([Cl])([Cl])[Cl])c1
**A:** label 0

**Q:** Given the entry O=C(O)Cc1ccc[n+]([Au-]([Cl])([Cl])[Cl])c1 , answer whether its Therapeutic Index meets or surpasses 3.
**A:** label 0
